# Species: Bos taurus
# experiment-description: Activation of actin-stimulated bovine cardiac myosin S1 fragment ATPase activity in sarcomere at 10 uM after 10 mins by spectrophotometric analysis
Would you mind labelling by Activity? At or over 40% is y, under is n.

S=C(NCCCc1ccccc1)NCCc1ccccc1 ... n
O=C(NCCCc1ccccc1)N1CCCCC1c1ccccc1 (configuration not stated) ... y
CN(CCCc1ccccc1)C(=O)N(C)CCc1ccccc1 ... y
COC(=O)N1CCN(Cc2cccc(NC(=O)Nc3ccc(C)nc3)c2F)CC1 [OMECAMTIV MECARBIL] ... y
O=C(NCCCc1ccccc1)N1CCCC(c2ccccc2)C1 (configuration not stated) ... n
O=C(NCCCc1ccccc1)N1CCCC1c1ccccc1 (configuration not stated) ... n

Okay, next one:
# bool: Activity of O=C(NCCc1ccccc1)N1CCN(c2ccccc2)CC1 >= 40% n

====

# Species on record: Bos taurus
# experiment-description: Activation of actin-stimulated bovine cardiac myosin S1 fragment ATPase activity in sarcomere at 10 uM after 10 mins by spectrophotometric analysis
quantity-measured: Activity (%)
Give the number; % is assumed, so skip it.

O=S(=O)(NCCCc1ccccc1)NCCc1ccccc1 ... 32.1
O=C(NCCCc1ccccc1)NC1Cc2ccccc2C1 ... 61.9
O=C(NCCCc1ccccc1)NCC1CCOCC1 ... 81.4
c1ccc(CCCCNCCCc2ccccc2)cc1 ... 11.9

Recall and state the measured Activity for O=C(NCCCN1CCOCC1)NCCc1ccccc1 . 32.9

Recall and state the measured Activity for O=C(NCCCc1ccccc1)NCC1CCCCC1 . 60.2

Recall and state the measured Activity for O=C(NCCCc1ccccc1)NCc1ccc2[nH]ccc2c1 . 37.2

Recall and state the measured Activity for O=C(NCCCc1ccccc1)Nc1ccccc1 . 46.2

Recall and state the measured Activity for O=C(COCCc1ccccc1)COCc1ccccc1 . 42.9

Recall and state the measured Activity for O=C(NCCCn1ccnc1)NCCc1ccccc1 . 32.6

Recall and state the measured Activity for O=C(NCCCc1ccccc1)NCCc1ccco1 . 30.6

Recall and state the measured Activity for O=C(NCCc1ccccc1)N1CCC(c2ccccc2)CC1 . 46.6

Recall and state the measured Activity for O=C(NCCCc1ccccc1)NCc1ccccc1 . 53.3

====

# Species: Bos taurus
# experiment-description: Activation of actin-stimulated bovine cardiac myosin S1 fragment ATPase activity in sarcomere at 10 uM after 10 mins by spectrophotometric analysis
quantity-measured: Activity (%)
Give the number; % is assumed, so skip it.

Look over these answered cases.
O=C(NCCCC1CCCCC1)NCCC1CCCCC1 ... 44.4
O=C(NCCCC1CCCCC1)NCCc1ccccc1 ... 37.9
O=C(NCCCc1ccccc1)NCCC1CCCCC1 ... 61.4
O=C(NCCCc1ccccc1)NCc1ccco1 ... 36.7
O=C(NCCCc1ccccc1)NCCc1ccccc1 ... 51.1
O=C(NCCCc1ccccc1)NC1CCCCC1 ... 20.3
O=C(CCCCc1ccccc1)NCCc1ccccc1 ... 39.1
O=C(NCCCc1ccccc1)NCCc1ccccn1 ... 30

Recall and state the measured Activity for c1ccc(CCCCCNCCc2ccccc2)cc1 . 1.6

Recall and state the measured Activity for O=C(NCCCc1ccccc1)NCCCc1ccccc1 . 45.5

====

Listed molecules paired with reported Activity
# Species on record: Oryctolagus cuniculus
# experiment-description: Activation of actin-stimulated rabbit psoas skeletal muscle myosin S1 fragment ATPase activity at 100 uM after 10 mins by spectrophotometric analysis
Give the number; % is assumed, so skip it.

Look over these answered cases.
COC(=O)N1CCN(Cc2cccc(NC(=O)Nc3ccc(C)nc3)c2F)CC1 ... 2.8
Cc1ccc2c(c1)C(=O)[C@]1(O)CCN(c3ccccc3)C1=N2 ... -50.7

With those in mind, consider the next molecule.
Recall and state the measured Activity for O=C(NCCCc1ccccc1)NCc1ccccc1 . 1.4
